The origin of these recorded values is patent US6906033.

Target: human plasma kallikrein (human, UniProt P03952 20-638)
Sequence (P03952 20-638): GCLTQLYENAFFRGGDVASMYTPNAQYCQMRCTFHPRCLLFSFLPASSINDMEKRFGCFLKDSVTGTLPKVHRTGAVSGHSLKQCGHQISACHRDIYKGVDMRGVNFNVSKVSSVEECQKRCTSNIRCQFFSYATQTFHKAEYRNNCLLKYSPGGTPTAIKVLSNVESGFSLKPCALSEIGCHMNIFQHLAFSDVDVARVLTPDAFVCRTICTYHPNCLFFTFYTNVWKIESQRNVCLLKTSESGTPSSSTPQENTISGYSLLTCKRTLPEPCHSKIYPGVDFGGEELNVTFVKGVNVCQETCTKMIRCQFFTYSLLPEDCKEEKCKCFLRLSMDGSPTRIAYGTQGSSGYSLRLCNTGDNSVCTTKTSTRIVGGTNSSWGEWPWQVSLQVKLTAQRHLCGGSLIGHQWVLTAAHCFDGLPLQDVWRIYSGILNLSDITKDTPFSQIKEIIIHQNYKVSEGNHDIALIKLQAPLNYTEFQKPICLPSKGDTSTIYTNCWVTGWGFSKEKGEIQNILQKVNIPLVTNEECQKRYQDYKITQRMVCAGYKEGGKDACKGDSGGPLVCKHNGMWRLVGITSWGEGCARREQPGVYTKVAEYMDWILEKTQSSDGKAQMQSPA
Experiment: enzyme inhibition
Give Ki for every item shown.
One number for each entry, in nM.

Use the examples below as a reference point.
INSERT INTO results (binder, assay_endpoint, endpoint_result) VALUES
  ('TW6158 (protein) EVVREVCSEQAETGPCRAMISRWYFDVTEGKCAPFFYGGCTGNRNNFDTEEYCMAVCGSAI', 'Ki', 29),
  ('TW6209 (protein) EVVREVCSEQAETGPCRAMISHWYFDVTEGKCAPFFYGGCGGNRNNFDTEEYCMAVCGSAI', 'Ki', 81),
  ('AL301 (protein) EVVREVCSEQAETGPCRAMISRWYFDVTEGKCAPFLYGGCGGNRNNFDTEEYCMAVCGSAI', 'Ki', 216),
  ('TW6157 (protein) EVVREVCSEQAETGPCRAMISRWYFDVTEGKCAPFFYGGCSGNRNNFDTEEYCMAVCGSAI', 'Ki', 40);

**Query** Name the reported Ki value associated with the binder TW6211 (protein) EVVREVCSEQAETGPCRAMISKWYFDVTEGKCAPFFYGGCGGNRNNFDTEEYCMAVCGSAI
**Result** 184
